Listing: pKd of selected binders
# target.entity: T1, EsCas13d, nuclease-dead (Eubacterium siraeum, UniProt B0MS50, R295A;H300A;R849A;H854A)
# T1 sequence: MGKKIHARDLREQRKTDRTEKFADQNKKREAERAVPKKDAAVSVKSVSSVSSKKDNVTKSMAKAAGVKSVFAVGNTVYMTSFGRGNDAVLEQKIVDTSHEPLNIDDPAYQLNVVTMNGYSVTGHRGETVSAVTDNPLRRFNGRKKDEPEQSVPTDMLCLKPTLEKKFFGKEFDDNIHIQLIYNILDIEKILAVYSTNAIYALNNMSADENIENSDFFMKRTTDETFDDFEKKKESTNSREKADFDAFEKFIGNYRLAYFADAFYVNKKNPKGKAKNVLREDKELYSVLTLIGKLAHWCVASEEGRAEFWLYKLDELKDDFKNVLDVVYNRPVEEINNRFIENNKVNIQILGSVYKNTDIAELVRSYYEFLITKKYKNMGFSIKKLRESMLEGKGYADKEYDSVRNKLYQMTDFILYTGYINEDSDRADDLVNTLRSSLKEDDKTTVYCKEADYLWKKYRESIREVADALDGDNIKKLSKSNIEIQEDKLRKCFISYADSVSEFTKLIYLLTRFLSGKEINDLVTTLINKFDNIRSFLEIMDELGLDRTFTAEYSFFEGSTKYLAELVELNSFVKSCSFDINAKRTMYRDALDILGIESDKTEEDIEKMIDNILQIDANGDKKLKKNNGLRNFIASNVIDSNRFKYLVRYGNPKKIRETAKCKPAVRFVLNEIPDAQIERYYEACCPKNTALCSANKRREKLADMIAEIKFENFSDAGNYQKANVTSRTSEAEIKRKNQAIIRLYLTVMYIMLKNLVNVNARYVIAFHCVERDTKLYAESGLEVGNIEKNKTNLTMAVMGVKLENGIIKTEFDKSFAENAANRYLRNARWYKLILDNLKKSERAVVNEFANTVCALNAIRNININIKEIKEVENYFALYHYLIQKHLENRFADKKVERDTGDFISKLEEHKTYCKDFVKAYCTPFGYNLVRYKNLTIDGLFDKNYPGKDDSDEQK
# assay.notes: crRNA (strand 1, pre-loaded); Mg2+; 40 mM Tris-HCl pH 7.5, 150 mM NaCl, 6 mM MgCl2, 1 mM DTT, 0.1% Tween-20, 0.2 mg/ml BSA; 25 C; 10 min per concentration, then washed
# assay.setup: tags: His6-TwinStrep-SUMO cleaved; N-terminal SNAP kept (SNAP-Surface 488); label: 3' end held by stalled T7 RNA polymerase
pKd: −log10 of the molar value.

>  <binder>
target 1 MT 5'PFS CCA 3'PFS UCA (mixed) RNA 1: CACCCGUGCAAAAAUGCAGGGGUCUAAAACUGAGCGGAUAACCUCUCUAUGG RNA 2: GGGAAUGGAUCCACAUCUACGAAUUCCCACCAUAGAGAGGUUAUCCGCUCAUCAAGAUCGGAAGAGCACACGU

>  <pKd>
8.18

$$$$
>  <binder>
target 1 MT 5'PFS AGG 3'PFS AGA (mixed) RNA 1: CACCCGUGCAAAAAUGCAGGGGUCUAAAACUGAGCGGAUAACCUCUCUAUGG RNA 2: GGGAAUGGAUCCACAUCUACGAAUUCAGGCCAUAGAGAGGUUAUCCGCUCAAGAAGAUCGGAAGAGCACACGU

>  <pKd>
7.43

$$$$
>  <binder>
target 1 MT 5'PFS CCA 3'PFS UGA (mixed) RNA 1: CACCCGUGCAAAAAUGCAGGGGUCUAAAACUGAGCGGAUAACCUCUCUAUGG RNA 2: GGGAAUGGAUCCACAUCUACGAAUUCCCACCAUAGAGAGGUUAUCCGCUCAUGAAGAUCGGAAGAGCACACGU

>  <pKd>
7.89

$$$$
>  <binder>
target 1 A9G,U10G (mixed) RNA 1: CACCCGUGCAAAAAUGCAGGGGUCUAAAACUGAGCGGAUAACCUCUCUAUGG RNA 2: GGGAAUGGAUCCACAUCUACGAAUUCGUACCAUAGAGAGGUGGUCCGCUCACCGAGAUCGGAAGAGCACACGU

>  <pKd>
7.43

$$$$
